test: Selectivity index, ratio of CC50 for human MT4 cells to EC50 for HIV-2 ROD infected in MT4 cells; type: toxicity, cell-based; conditions: read-out: Ratio CC50/EC50
MEASUREMENT_KIND: selectivity ratio

Please report the recorded selectivity ratio for COc1cccc(/C=N/NC(=O)CSc2nnnn2-c2cccc3ccccc23)c1OC .
< 1

Now try O=C(CSc1nnnn1-c1cccc2ccccc12)N/N=C/c1ccccc1 .
< 1

Try this compound too: O=C(CSc1nnnn1-c1cccc2ccccc12)N/N=C/c1ccc(Cl)cc1
1

And the next one, O=C(CSc1nnnn1-c1cccc2ccccc12)N/N=C/c1cccs1 ?
1

Continue with O=C(CSc1nnnn1-c1cccc2ccccc12)N/N=C/c1ccc([N+](=O)[O-])cc1
1

Same for O=C(CSc1nnnn1-c1cccc2ccccc12)N/N=C/c1ccco1
1

Likewise for COc1ccc(O)c(/C=N/NC(=O)CSc2nnnn2-c2cccc3ccccc23)c1 ?
< 1

Now try O=C(CSc1nnnn1-c1cccc2ccccc12)N/N=C/c1ccccc1F .
1

Input O=C(CSc1nnnn1-c1cccc2ccccc12)N/N=C/c1cccc(Cl)c1
< 1

Likewise for O=C(CSc1nnnn1-c1cccc2ccccc12)N/N=C/c1ccccc1O ?
< 1

Input COc1cc(/C=N/NC(=O)CSc2nnnn2-c2cccc3ccccc23)ccc1O
1

What about this compound? Cc1cccc(/C=N/NC(=O)CSc2nnnn2-c2cccc3ccccc23)c1
< 1

Here is the next compound: O=C(CSc1nnnn1-c1cccc2ccccc12)N/N=C/c1cccc(O)c1
< 1

Next entry: O=C(CSc1nnnn1-c1cccc2ccccc12)N/N=C/c1ccc(O)cc1
1

Try this compound next: O=C(CSc1nnnn1-c1cccc2ccccc12)N/N=C/c1ccc(F)cc1
1

Query O=C(CSc1nnnn1-c1cccc2ccccc12)N/N=C/c1ccccc1Cl next
< 1

// same read-out, input: COc1ccc(/C=N/NC(=O)CSc2nnnn2-c2cccc3ccccc23)cc1
1

Entry to check: COc1ccc(/C=N/NC(=O)CSc2nnnn2-c2cccc3ccccc23)c(OC)c1
< 1

# repeat for CN(C)c1ccc(/C=N/NC(=O)CSc2nnnn2-c2cccc3ccccc23)cc1
1

Again, but for COc1ccc(/C=N/NC(=O)CSc2nnnn2-c2cccc3ccccc23)cc1OC
< 1

###

assay: Cytotoxicity against Homo sapiens (human) MT4 cells by MTT assay; assay type: cell-based
MEASUREMENT_KIND: CC50 (µM)
Answer with a number only, understood to be in µM.

Returns the measured CC50 for the input molecule. Input: O=C(CSc1nnnn1-c1cccc2ccccc12)N/N=C/c1ccccc1O
4.85

What would you report for COc1ccc(/C=N/NC(=O)CSc2nnnn2-c2cccc3ccccc23)cc1OC ?
191

Now this one: Cc1cccc(/C=N/NC(=O)CSc2nnnn2-c2cccc3ccccc23)c1
269

Next molecule: O=C(CSc1nnnn1-c1cccc2ccccc12)N/N=C/c1cccc(Cl)c1
240

Same lookup for O=C(CSc1nnnn1-c1cccc2ccccc12)N/N=C/c1ccccc1 , please.
216

###

Hi there, I'd appreciate the recorded EC50 for every entry that follows.
test system: Human immunodeficiency virus 1; test: Antiviral activity against Human immunodeficiency virus 1 IIIB infected human MT4 cells assessed as inhibition of virus-induced cytopathicity after 4 days by MTT assay; assay type: functional, organism-based; conditions: MT4, 96 h

Look at this molecule and give its reported EC50. O=C(CSc1nnnn1-c1cccc2ccccc12)N/N=C/c1ccc(O)cc1
31.6 µM

Continue with O=C(CSc1nnnn1-c1cccc2ccccc12)N/N=C/c1ccc(Cl)cc1
> 296 µM

Another molecule to look at: COc1ccc(/C=N/NC(=O)CSc2nnnn2-c2cccc3ccccc23)cc1
> 299 µM

// query: O=C(CSc1nnnn1-c1cccc2ccccc12)N/N=C/c1cccc(Cl)c1
> 240 µM

What do we get for CN(C)c1ccc(/C=N/NC(=O)CSc2nnnn2-c2cccc3ccccc23)cc1 ?
> 290 µM

How about O=C(CSc1nnnn1-c1cccc2ccccc12)N/N=C/c1ccc([N+](=O)[O-])cc1 ?
> 261 µM

Subsequent entry: O=C(CSc1nnnn1-c1cccc2ccccc12)N/N=C/c1cccc(O)c1
29.6 µM

Can you check COc1ccc(/C=N/NC(=O)CSc2nnnn2-c2cccc3ccccc23)c(OC)c1 next?
> 28.3 µM

Another molecule to look at: O=C(CSc1nnnn1-c1cccc2ccccc12)N/N=C/c1ccco1
> 330 µM

Now the same for O=C(CSc1nnnn1-c1cccc2ccccc12)N/N=C/c1ccccc1O
> 4.85 µM

Quick one: COc1ccc(/C=N/NC(=O)CSc2nnnn2-c2cccc3ccccc23)cc1OC
≥ 36.3 µM

Now consider COc1ccc(O)c(/C=N/NC(=O)CSc2nnnn2-c2cccc3ccccc23)c1 .
> 4.51 µM

// repeat for O=C(CSc1nnnn1-c1cccc2ccccc12)N/N=C/c1ccccc1F and report
> 118 µM

Then this molecule: O=C(CSc1nnnn1-c1cccc2ccccc12)N/N=C/c1ccccc1
≥ 21.4 µM

Continue with COc1cccc(/C=N/NC(=O)CSc2nnnn2-c2cccc3ccccc23)c1OC
> 192 µM

// same read-out, input: Cc1cccc(/C=N/NC(=O)CSc2nnnn2-c2cccc3ccccc23)c1
> 269 µM

Thanks! And O=C(CSc1nnnn1-c1cccc2ccccc12)N/N=C/c1cccs1 ?
> 317 µM

And the next one, O=C(CSc1nnnn1-c1cccc2ccccc12)N/N=C/c1ccc(F)cc1 ?
> 308 µM

And what about the molecule COc1cc(/C=N/NC(=O)CSc2nnnn2-c2cccc3ccccc23)ccc1O ?
> 288 µM

Try the molecule O=C(CSc1nnnn1-c1cccc2ccccc12)N/N=C/c1ccccc1Cl
> 69.7 µM

###

assay: Cytotoxicity against Homo sapiens (human) MT4 cells by MTT assay; type: cell-based
MEASUREMENT_KIND: CC50

Tell me the measured CC50 of O=C(CSc1nnnn1-c1cccc2ccccc12)N/N=C/c1ccccc1F , please.
≥ 118 µM

Check O=C1Nc2ccc(Cl)cc2[C@@](C#CC2CC2)(C(F)(F)F)O1 [EFAVIRENZ] too.
> 6.34 µM

Request: Cc1cn([C@H]2C[C@H](N=[N+]=[N-])[C@@H](CO)O2)c(=O)[nH]c1=O [ZIDOVUDINE]
> 93.5 µM

O=C(CSc1nnnn1-c1cccc2ccccc12)N/N=C/c1ccc([N+](=O)[O-])cc1 ?
≥ 261 µM

Would you mind doing Cc1ccnc2c1NC(=O)c1cccnc1N2C1CC1 [NEVIRAPINE] as well?
> 15 µM
